Here the recorded Cmax is given for each entry.
Assay: Cmax in mouse at 1 mg/ml, po
Type: ADME
Parameters: dose 1 mg/ml, route po
Settings: in vivo
reported.property: Cmax (nM)

| compound | numeric.readout |
| --- | --- |
| Cc1cc(N2CCc3c(c(C)nn3CC34CCC(NC(=O)[C@@H]5COCCN5)(CC3)CC4)C2)c2cnn(C)c2n1 [MHV-370] | 1860 |
| CCNCC(=O)NC12CCC(Cn3nc(C)c4c3CCN(c3cc(C)nc5c3cnn5C)C4)(CC1)CC2 | 515 |
| CN[C@@H](C)C(=O)NC12CCC(Cn3nc(C)c4c3CCN(c3cc(C)nc5c3cnn5C)C4)(CC1)CC2 | 237 |

###

Target: Toll-like receptor 7 (Homo sapiens, UniProt Q9NYK1)
Sequence (Q9NYK1 whole entry): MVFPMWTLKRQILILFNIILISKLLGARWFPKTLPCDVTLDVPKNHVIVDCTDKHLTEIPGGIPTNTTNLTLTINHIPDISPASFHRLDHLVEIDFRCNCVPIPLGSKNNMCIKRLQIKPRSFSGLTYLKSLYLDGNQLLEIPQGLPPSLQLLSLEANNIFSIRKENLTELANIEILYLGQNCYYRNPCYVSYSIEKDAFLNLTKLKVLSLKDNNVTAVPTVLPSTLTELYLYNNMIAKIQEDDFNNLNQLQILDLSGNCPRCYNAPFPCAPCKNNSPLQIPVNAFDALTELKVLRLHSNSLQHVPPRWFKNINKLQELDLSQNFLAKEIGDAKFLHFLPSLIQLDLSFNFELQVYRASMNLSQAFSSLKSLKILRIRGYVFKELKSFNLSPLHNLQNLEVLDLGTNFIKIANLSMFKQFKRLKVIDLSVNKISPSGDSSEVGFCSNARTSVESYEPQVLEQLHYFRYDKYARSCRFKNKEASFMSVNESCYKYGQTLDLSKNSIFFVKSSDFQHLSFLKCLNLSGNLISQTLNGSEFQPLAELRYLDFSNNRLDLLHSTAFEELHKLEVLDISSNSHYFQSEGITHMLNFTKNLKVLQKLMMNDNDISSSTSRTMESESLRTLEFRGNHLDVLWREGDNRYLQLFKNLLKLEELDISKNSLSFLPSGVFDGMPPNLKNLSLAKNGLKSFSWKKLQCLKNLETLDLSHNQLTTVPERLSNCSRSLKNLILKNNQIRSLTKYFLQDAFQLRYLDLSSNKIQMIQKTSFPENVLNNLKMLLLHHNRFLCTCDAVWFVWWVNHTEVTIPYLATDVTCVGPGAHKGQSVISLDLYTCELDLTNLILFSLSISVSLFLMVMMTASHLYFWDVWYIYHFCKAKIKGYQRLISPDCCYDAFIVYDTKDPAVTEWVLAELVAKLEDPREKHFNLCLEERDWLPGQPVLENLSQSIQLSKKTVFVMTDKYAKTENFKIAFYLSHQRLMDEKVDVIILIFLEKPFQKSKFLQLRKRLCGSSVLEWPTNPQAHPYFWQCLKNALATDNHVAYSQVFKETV
Experiment: Antagonist activity at TLR7 in human PBMC cells assessed as reduction in IFN alpha measured after 20 hrs by AlphaLISA assay
Type: cell-based
pIC50: −log10 of the molar value.
Class T: pIC50 at least 8. Class F: pIC50 below 8.

| chem.smiles | assigned.category |
| --- | --- |
| Cc1cc(N2CCc3c(c(C)nn3CC34CCC(N5CCN(C)C(=O)C5)(CC3)CC4)C2)c2cnn(C)c2n1 | F |
| Cc1cc(N2CCc3c(c(C)nn3CC34CCC(NC5COC5)(CC3)CC4)C2)c2cnn(C)c2n1 | F |
| Cc1cc(N2CCc3c(c(C)nn3CC34CCC(N)(CC3)CC4)C2)c2cnn(C)c2n1 | F |
| Cc1cc(N2CCc3c(c(C)nn3CC34CCC(NCC(=O)N(C)C)(CC3)CC4)C2)c2cnn(C)c2n1 | F |
| Cc1cc(N2CCc3c(c(C)nn3CC34CCC(NC(=O)CN5CCCC5)(CC3)CC4)C2)c2cnn(C)c2n1 | T |
| Cc1cc(N2CCc3c(c(C)nn3CC34CCC(N5CCN(C)CC5=O)(CC3)CC4)C2)c2cnn(C)c2n1 | F |
| Cc1cc(N2CCc3c(c(C)nn3CC34CCC(NC(=O)CN5CCC5)(CC3)CC4)C2)c2cnn(C)c2n1 | T |
| Cc1cc(N2CCc3c(c(C)nn3CC34CCC(NC(=O)[C@@H]5CNCCO5)(CC3)CC4)C2)c2cnn(C)c2n1 | T |

###

Test: MRT in mouse at 20 mg/kg, po
Assay type: ADME, organism-based
Details: in vivo

| chem.smiles | u | MRT |
| --- | --- | --- |
| Cc1cc(N2CCc3c(c(C)nn3CC34CCC(N)(CC3)CC4)C2)c2cnn(C)c2n1 | h | 2.9 |

###

Test: Metabolic stability in human liver microsomes assessed as intrinsic clearance
Assay type: ADME, Microsome
Conditions: read-out: CLH
Please use true (1) whenever microsomal CLint is not below 50 µL/min/mg, and false (0) whenever it is.

| chem.smiles | assigned.category |
| --- | --- |
| Cc1cc(N2CCc3c(c(C)nn3CC34CCC(NC5CCC5)(CC3)CC4)C2)c2cnn(C)c2n1 | true (1) |
| Cc1cc(N2CCc3c(c(C)nn3CC34CCC(N5C[C@@H](C)O[C@@H](C)C5)(CC3)CC4)C2)c2cnn(C)c2n1 | true (1) |
| Cc1cc(N2CCc3c(c(C)nn3CC34CCC(NC(=O)CN5CCCC5)(CC3)CC4)C2)c2cnn(C)c2n1 | true (1) |
| CN[C@@H](C)C(=O)NC12CCC(Cn3nc(C)c4c3CCN(c3cc(C)nc5c3cnn5C)C4)(CC1)CC2 | false (0) |
| CCNCC(=O)NC12CCC(Cn3nc(C)c4c3CCN(c3cc(C)nc5c3cnn5C)C4)(CC1)CC2 | false (0) |
| Cc1cc(N2CCc3c(c(C)nn3CC34CCC(NC5COC5)(CC3)CC4)C2)c2cnn(C)c2n1 | true (1) |
| Cc1cc(N2CCc3c(c(C)nn3CC34CCC(NS(C)(=O)=O)(CC3)CC4)C2)c2cnn(C)c2n1 | true (1) |
| Cc1cc(N2CCc3c(c(C)nn3CC34CCC(N5CCOCC5)(CC3)CC4)C2)c2cnn(C)c2n1 | true (1) |
| COCCNC12CCC(Cn3nc(C)c4c3CCN(c3cc(C)nc5c3cnn5C)C4)(CC1)CC2 | false (0) |
| Cc1cc(N2CCc3c(c(C)nn3CC34CCC(NC(=O)CN(C)C)(CC3)CC4)C2)c2cnn(C)c2n1 | true (1) |
| CNC12CCC(Cn3nc(C)c4c3CCN(c3cc(C)nc5c3cnn5C)C4)(CC1)CC2 | false (0) |
| Cc1cc(N2CCc3c(c(C)nn3CC34CCC(N(C)C)(CC3)CC4)C2)c2cnn(C)c2n1 | false (0) |
| Cc1cc(N2CCc3c(c(C)nn3CC34CCC(NCC(=O)N(C)C)(CC3)CC4)C2)c2cnn(C)c2n1 | false (0) |
| Cc1cc(N2CCc3c(c(C)nn3CC34CCC(N5CCN(C)CC5=O)(CC3)CC4)C2)c2cnn(C)c2n1 | true (1) |
| Cc1cc(N2CCc3c(c(C)nn3CC34CCC(NC(=O)[C@H]5COCCN5)(CC3)CC4)C2)c2cnn(C)c2n1 | true (1) |
| Cc1cc(N2CCc3c(c(C)nn3CC34CCC(NC(=O)[C@@H]5CNCCO5)(CC3)CC4)C2)c2cnn(C)c2n1 | true (1) |
| Cc1cc(N2CCc3c(c(C)nn3CC34CCC(N5CCC5)(CC3)CC4)C2)c2cnn(C)c2n1 | true (1) |
| Cc1cc(N2CCc3c(c(C)nn3CC34CCC(N)(CC3)CC4)C2)c2cnn(C)c2n1 | false (0) |
| CC(=O)NC12CCC(Cn3nc(C)c4c3CCN(c3cc(C)nc5c3cnn5C)C4)(CC1)CC2 | true (1) |
| Cc1cc(N2CCc3c(c(C)nn3CC34CCC(NC(=O)[C@@H]5COCCN5)(CC3)CC4)C2)c2cnn(C)c2n1 | false (0) |
| Cc1cc(N2CCc3c(c(C)nn3CC34CCC(NCC(F)F)(CC3)CC4)C2)c2cnn(C)c2n1 | true (1) |
| CN[C@H](C)C(=O)NC12CCC(Cn3nc(C)c4c3CCN(c3cc(C)nc5c3cnn5C)C4)(CC1)CC2 | false (0) |
| Cc1cc(N2CCc3c(c(C)nn3CC34CCC(N5CCCC5)(CC3)CC4)C2)c2cnn(C)c2n1 | true (1) |
| CCN(C)CC(=O)NC12CCC(Cn3nc(C)c4c3CCN(c3cc(C)nc5c3cnn5C)C4)(CC1)CC2 | true (1) |
| Cc1cc(N2CCc3c(c(C)nn3CC34CCC(N5CCN(C)C(=O)C5)(CC3)CC4)C2)c2cnn(C)c2n1 | false (0) |
| Cc1cc(N2CCc3c(c(C)nn3CC34CCC(NC(=O)CN5CCC5)(CC3)CC4)C2)c2cnn(C)c2n1 | true (1) |

Measured values drawn from ChEMBL document CHEMBL5360657 for this set.
